System: U-251
Assay: NCI tumour cell line growth inhibition, 48 h
Activity calls are given as the source filed them. Rule as the data show it: active = GI50 up to about 1.1 µM and inactive = higher.
Pick from yes (1) = active, no (0) = inactive when you respond.

Study these solved cases before continuing.
O=C1C=CC2(C=C1)CCC(=O)O2 :: no (0)
CC(C)(C)OC(=O)NC(CCCCNC(=O)OCc1ccccc1)C(=O)NC(CCCCNC(=O)OCc1ccccc1)C(=O)ON1C(=O)CCC1=O (stereo unspecified) :: no (0)
CN(C)CCC(O)(c1ccccc1)C(O)(CCN(C)C)c1ccccc1 (stereo unspecified) :: no (0)
O=C1Cc2cn[nH]c2-c2ccccc2N1 :: no (0)
O=C(CCN1CCN(c2ccccc2)CC1)N1CCc2c([nH]c3ccccc23)C1c1cccnc1 (stereo unspecified) :: no (0)

Asked: // param item: "c1ccc2cc(CN3CCC(C4CCN(Cc5ccc6ccccc6c5)CC4)CC3)ccc2c1" ; yields the recorded call
Given back: no (0)

Asked: Now the molecule "CCOC(=O)c1[nH]c(Br)c(-c2ccc(OC)c(OC)c2)c1Br"
Given back: yes (1)

Asked: Now the molecule "CC[C@]12C=CCN3CC[C@@]4(c5cc(Br)c(OC)c([N+](=O)[O-])c5N(C)[C@H]4[C@@](O)(C(=O)OC)[C@@H]1OC(C)=O)[C@@H]32"
Given back: no (0)

Asked: Now the molecule "O=c1[nH]c(Br)nc2[nH]nnc12"
Given back: no (0)

Asked: Now the molecule CC12CCC(=O)N1c1cccnc1N2 (stereo unspecified)
Given back: no (0)

Asked: Now the molecule "FC(F)(F)c1ccc(Cc2nc3cc4ccccc4cc3[nH]2)cc1"
Given back: no (0)
